test system: 171881-019-R-J1-PDC tumor spheroids, viability; assay: Anticancer human tumor 171881-019-R-J1-PDC patient-derived invasive breast carcinoma cell line growth inhibition [GQUAD]; conditions: second compound 0.316 µM; first compound 0.0316 µM; active compounds read low; spheroids with HUVEC and MSC
observation-type: viability, T/C (%)

{"columns": ["compound", "value-measured"],
 "data": [
  ["CC(C)(O)C1CCC(Nc2ccc3ncc(-c4cccc(C(F)(F)F)c4)n3n2)CC1 (stereo not drawn) + Cc1[nH]c2ccc(F)cc2c1-c1nc2c3cccnc3c3ncccc3c2[nH]1", 78.7],
  ["CCCS(=O)(=O)Nc1ccc(F)c(C(=O)c2c[nH]c3ncc(-c4ccc(Cl)cc4)cc23)c1F + Cc1cnc(CNC(=O)c2c(=O)c3ccc(N4CCCN(C)CC4)nc3n3c2sc2ccccc23)cn1", 78],
  ["C=CC(=O)N1CCN(c2nc(=O)n(-c3c(C)ccnc3C(C)C)c3nc(-c4c(O)cccc4F)c(F)cc23)C(C)C1 (stereo not drawn) + CN(C)c1ccc(Nc2c3ccc(NC(=O)CCN4CCCC4)cc3nc3cc(NC(=O)CCN4CCCC4)ccc23)cc1", 79.3]
]}

---

system: 171881-019-R-J1-PDC tumor spheroids, viability; test: Anticancer human tumor 171881-019-R-J1-PDC cell line growth inhibition [GQUAD]; details: second compound 0.316 µM; first compound 0.1 µM; active compounds read low; spheroids with HUVEC and MSC;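 also: spheroids exposed to compounds for 7 days; 100% = DMSO vehicle control viability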
Please respond with 1.0 when measured viability, T/C is strictly beneath 40%, and with 0.0 in all other cases.

{"columns": ["compound", "class-assignment"],
 "data": [
  ["O=C(NO)c1cnc(N2CCN(S(=O)(=O)c3ccc4ccccc4c3)CC2)nc1 + CN(C)c1ccc(Nc2c3ccc(NC(=O)CCN4CCCC4)cc3nc3cc(NC(=O)CCN4CCCC4)ccc23)cc1", 1.0],
  ["C=CC(=O)N1CCN(c2nc(=O)n(-c3c(C)ccnc3C(C)C)c3nc(-c4c(O)cccc4F)c(F)cc23)C(C)C1 (stereo not drawn) + Cc1[nH]c2ccc(F)cc2c1-c1nc2c3cccnc3c3ncccc3c2[nH]1", 0.0],
  ["CC(C)(O)C1CCC(Nc2ccc3ncc(-c4cccc(C(F)(F)F)c4)n3n2)CC1 (stereo not drawn) + Cc1[nH]c2ccc(F)cc2c1-c1nc2c3cccnc3c3ncccc3c2[nH]1", 0.0],
  ["COc1ncnc(C2CC2)c1-c1ncc2cnn(Cc3ccc(-c4nc(C(F)(F)F)cn4C(C)C)cc3)c2n1 + CN(C)c1ccc(Nc2c3ccc(NC(=O)CCN4CCCC4)cc3nc3cc(NC(=O)CCN4CCCC4)ccc23)cc1", 1.0],
  ["C#Cc1c(F)ccc2cc(O)cc(-c3ncc4c(N5CC6CCC(C5)N6)nc(OCC56CCCN5CC(F)C6)nc4c3F)c12 (stereo not drawn) + Cc1[nH]c2ccc(F)cc2c1-c1nc2c3cccnc3c3ncccc3c2[nH]1", 0.0],
  ["COc1ccc([C@@H](O)c2cc(-c3ncnc4cc(N5CCOCC5)ccc34)c(F)cc2Cl)nn1 + CN(C)c1ccc(Nc2c3ccc(NC(=O)CCN4CCCC4)cc3nc3cc(NC(=O)CCN4CCCC4)ccc23)cc1", 0.0],
  ["Nc1ccn(C2OC(CO)C(O)C2(F)F)c(=O)n1 (stereo not drawn) + Cc1[nH]c2ccc(F)cc2c1-c1nc2c3cccnc3c3ncccc3c2[nH]1", 1.0],
  ["Nc1ccn(C2OC(CO)C(O)C2(F)F)c(=O)n1 (stereo not drawn) + CN(C)c1ccc(Nc2c3ccc(NC(=O)CCN4CCCC4)cc3nc3cc(NC(=O)CCN4CCCC4)ccc23)cc1", 1.0]
]}
